The origin of these recorded values is the Deep4Chem optical property database.

List of absorption maximum values.
Test: solvent given as SMILES
Details: in C1CCOC1
Write the number in nm without appending the unit.

Cc1cc(C)c(C2=C3C=c4c(c5ccccc5c5ccccc45)=[N+]3[B-](F)(F)n3c2cc2c4ccccc4c4ccccc4c23)c(C)c1 :: 673

The recorded absorption maximum for entry `Cn1c(=O)c(/N=N/c2ccc(Nc3ccccc3)c(S(=O)(=O)O)c2)c(O)c2ccccc21` equals 412

Short answer for `N#Cc1c(N2CCCCC2)cc(-c2ccc3ccccc3c2)c2c1C(=O)c1ccccc1-2` : absorption maximum was 346

Documented absorption maximum of `CCCCOc1c(-c2c(OCCCC)c3oc4cc5ccccc5cc4c3c3ccccc23)c2ccccc2c2c1oc1cc3ccccc3cc12` : 366

====

Experiment: solvent given as SMILES
Conditions: in OCC(F)(F)F
Readout Label: absorption maximum
Please answer using the number first and the unit second.

Sample records with absorption maximum:
Cc1ccc(C2=C3C=C(I)C=[N+]3[B-](F)(F)n3c2cc(I)c3I)cc1 :: 553 nm
C=CCOc1nnc(OCCC(F)(F)C(F)(F)C(F)(F)C(F)(F)C(F)(F)C(F)(F)C(F)(F)C(F)(F)F)nn1 :: 512 nm
Cc1ccc(C2=C3C=C(I)C(I)=[N+]3[B-](F)(F)n3c2cc(I)c3I)cc1 :: 569 nm

Sure, the documented absorption maximum for `CCCCN1C(=O)C(=C/C=C/C=C/C=C2N(CCCC)c3ccccc3N2CCCC)C(=O)N(CCCC)C1=S` is 464 nm

Recorded result, `Cc1cc2c(o1)c(C)cc1ccc(=O)oc12` , absorption maximum: 310 nm

Summary for this molecule, `FC(F)(F)C(F)(F)C(F)(F)C(F)(F)C(F)(F)C(F)(F)CCOc1nnc(Cl)nn1` : absorption maximum is 519 nm

Summary for this molecule, `N#Cc1ccc(N)cc1` : absorption maximum is 264 nm

Item: `CCC1=C(C)C2=C(C)c3c(I)c(I)c(I)n3[B-](F)(F)[N+]2=C1C` | absorption maximum: 511.5 nm

Sample `CCC1=C(C)C2=Cc3c(I)c(I)cn3[B-](F)(F)[N+]2=C1C` ; absorption maximum observed: 501 nm

Field absorption maximum (entry `CC(C)(C)NC1=C2C=CC=[N+]2[B-](F)(F)n2cccc21` ) reads 406 nm

====

Experiment: solvent given as SMILES
Settings: in Cc1ccccc1
Entries and their absorption maximum values follow.
# output: bare number, implied unit nm

Below: 5 compounds and their reported absorption maximum.
CCCCC(CC)CN1C(=O)c2cccc3c(C#Cc4ccc(N(c5ccccc5)c5ccccc5)cc4)ccc(c23)C1=O (centres undefined) :: 438
F[B-]1(F)OC(c2ccccc2)=Nc2sc(-c3ccccc3)n[n+]21 :: 337
CC(C)CCCCN1CCc2c1ccc1c3c(ccc21)C(=O)CCC3 :: 368
Cc1cc(=O)oc2cc3c4ccccc4c4ccccc4c3cc12 :: 381
CC(C)(C)c1ccc2c(c1)c1cc(C(C)(C)C)ccc1n2-c1ccccc1-c1nc(-c2ccccc2P(=O)(c2ccccc2)c2ccccc2)nc(-c2ccccc2P(=O)(c2ccccc2)c2ccccc2)n1 :: 320.35

get_value(item= `O=c1oc2ccc(Cl)cc2cc1-c1cc2cc(Cl)ccc2o1` , readout=absorption maximum) returns 375

Looking up `CCCCN1C(=S)c2cccc3c(OC)ccc(c23)C1=S` , I see its absorption maximum listed as 468

Noted for `N#Cc1nc(-c2ccc(N3c4ccccc4Oc4ccccc43)cc2)c(-c2ccc(N3c4ccccc4Oc4ccccc43)cc2)nc1C#N` : its absorption maximum reads 473

`c1ccc(-c2oc(-c3ccccc3)c3ccccc23)cc1` yielded absorption maximum of 414

====

Assay: solvent given as SMILES
Conditions: in ClCCl
Here the recorded absorption maximum is given for each entry.
Quick note: give the figure in nm, leave out the unit.

// below: answered molecules
O=[N+]([O-])c1ccc2nc3cc4ccccc4cc3c(-c3ccccc3)c2c1 :: 400
CC(C)(C)C1CCC(=CS/C=C/c2ccc(-c3ccc(/C=C/SC=C4CCC(C(C)(C)C)CC4)cc3)cc2)CC1 (centres undefined) :: 350
CCCCCCOc1cc(C=C(C#N)C#N)c(OCCCCCC)cc1C=C(C#N)C#N :: 477

Data point: `CCOC(=O)COc1ccc(/C=C/c2c(CC)c(C)c3n2[B-](F)(F)[N+]2=C(c4[nH]c(C)c(CC)c4C)c4ccccc4C2=C3C)cc1` ; absorption maximum = 675

====

Below, each entry is listed alongside its reported absorption maximum.
Assay: solvent given as SMILES
Conditions: in C1CCCCC1
A number alone suffices; assume nm.

// solved cases for absorption maximum follow
Oc1cccc2ccccc12 :: 303.49
CN(C)c1ccc(-c2c(/C=C3/C=Cc4ccccc4N3Cc3ccccc3)c(=O)c2=O)cc1 :: 358
Cc1ccc(/C(C#N)=C/c2cc(/C=C(\C#N)c3ccc(C)cc3)c(-c3ccc(N(c4ccccc4)c4ccccc4)cc3)cc2-c2ccc(N(c3ccccc3)c3ccccc3)cc2)cc1 :: 385
N#CC(C#N)=C(c1ccc(N(c2ccccc2)c2ccccc2)cc1)c1ccc(N(c2ccccc2)c2ccccc2)cc1 :: 367.21

Briefly, absorption maximum measured for O=P1(c2ccccc2)c2ccccc2-c2sc3ccccc3c21 (stereo not given) : 327

====

Assay: solvent given as SMILES
Settings: in C1CCOC1
Could you label it Fulfilled if measured absorption maximum is 400 nm or higher, and Not fulfilled otherwise?

CC(C)(C)c1ccc2c(c1)c1cc(C(C)(C)C)ccc1n2-c1ccccc1-c1nc(-c2ccccc2P(=O)(c2ccccc2)c2ccccc2)nc(-c2ccccc2P(=O)(c2ccccc2)c2ccccc2)n1 :: Not fulfilled
O=P(c1ccccc1)(c1ccccc1)n1c2ccccc2c2cc(-n3c4ccccc4c4ccccc43)ccc21 :: Not fulfilled
CCCCCCCCCCn1cc(C2=C(c3cn(CCCCCCCCCC)c4ccccc34)C(=O)N(C)C2=O)c2ccccc21 :: Fulfilled
Cc1cc(=O)oc2cc3c4ccccc4c4ccccc4c3cc12 :: Not fulfilled
Cc1cc(C)c(B(c2c(C)cc(C)cc2C)c2cc3ccc4ccccc4c3c3c2cc(N(C)C)c2ccccc23)c(C)c1 :: Fulfilled
c1ccc2c(-n3c4ccccc4c4ccccc43)cccc2c1 :: Not fulfilled
CN(C)/C=N\c1ccc2c3c(cccc13)C(=O)c1ccccc1-2 :: Fulfilled
CCN(CC)c1ccc2cc(/C=C/C(=O)/C=C(O)/C=C/c3cc4ccc(N(CC)CC)cc4oc3=O)c(=O)oc2c1 :: Fulfilled

Prompt line: Could you please find out whether `N#Cc1ccc(-c2ccc3c(c2)c2cc(-c4ccc(C#N)cc4)ccc2c2c3nc(-c3ccc(-c4ccc(N(c5ccccc5)c5ccccc5)cc4)cc3)n2-c2ccccc2)cc1` has absorption maximum that meets 400 nm or exceeds it?
Response line: Not fulfilled

Prompt line: Could you tell me if the measured absorption maximum of `CC1=NN(c2ccccc2)C(=O)/C1=C/c1cn(-c2ccccc2)nc1-c1ccccc1` reaches 400 nm or more?
Response line: Not fulfilled

Prompt line: Please indicate if the recorded absorption maximum for `COc1ccc2cc(-c3ccc([N+](=O)[O-])cc3)ccc2c1` meets or exceeds 400 nm.
Response line: Not fulfilled

Prompt line: # check: absorption maximum of `N#Cc1ccc(-c2ccc(C3=CCCCC3)s2)s1` is greater than or equal to 400 nm
Response line: Not fulfilled

====

Test: solvent given as SMILES
Conditions: in CCOC(C)=O
Classification field: Satisfied = absorption maximum at or over 400 nm; Not satisfied = absorption maximum under 400 nm.

See these solved cases before continuing.
COc1ccc(/C=C/C2=[O+][B-](F)(F)OC(/C=C/c3ccc(OC)cc3)=C2c2ccccc2)cc1 :: Satisfied
Cc1cccc2cc(-c3cc4cccc(C)c4oc3=O)oc12 :: Not satisfied
c1ccc2cc(-n3c4ccccc4c4ccccc43)ccc2c1 :: Not satisfied
CCN(CC)c1ccc2nc3c4ccccc4c(=O)cc-3oc2c1 :: Satisfied
Cc1ccc(C2=C3C=C(I)C(I)=[N+]3[B-](F)(F)n3c2cc(I)c3I)cc1 :: Satisfied

Prompt line: Hi team, for `CC(C)CCCCN1CCc2c1ccc1c3c(ccc21)C(=O)CCC3` , is the recorded absorption maximum at or above 400 nm?
Response line: Not satisfied

Prompt line: Would you say `O=C1/C(=C\c2ccc3oc4ccccc4c3c2)S(=O)(=O)c2ccccc21` shows absorption maximum at minimum 400 nm?
Response line: Not satisfied

Prompt line: Tell me whether absorption maximum is at least 400 nm here: `c1ccc(-c2nc(-c3ccc(-c4ccc(N(c5ccccc5)c5ccccc5)cc4)cn3)oc2-c2ccccc2)cc1`
Response line: Not satisfied

====

Catalogue of absorption maximum values
Assay: solvent given as SMILES
Conditions: in ClC(Cl)Cl
Dear colleague, please return just the value in nm, with no unit written.

Past entries and their recorded results:
FC(F)(F)c1ccc2oc3nc4oc5ccc(-n6c7ccccc7c7ccccc76)cc5c4cc3c2c1 :: 342
CC[Si](C#Cc1c2c(=O)c3ccccc3c2c(C#C[Si](CC)(CC)CC)c2c(=O)c3ccccc3c12)(CC)CC :: 522
Cc1cc(C)c(B(c2c(C)cc(C)cc2C)c2cc3ccc4ccccc4c3c3c2cc(N(C)C)c2ccccc23)c(C)c1 :: 440
CC(C)(C)c1ccc(C2=c3sc4ccccc4c3=[N+]3C2=Nc2c(-c4ccc(C(C)(C)C)cc4)c4sc5ccccc5c4n2[B-]3(F)F)cc1 :: 711

The recorded absorption maximum for `F[B-]1(F)OC(c2ccc(N3CCCCC3)cc2)=Cc2cccc[n+]21` is 421

Entry `C=CCOC(=O)C(C#N)=C1C=C(/C=C/c2ccc(N(C)C)cc2)OC(/C=C/c2ccc(N(C)C)cc2)=C1` ; absorption maximum = 479

response.value for `COC(=O)CN1C(=O)c2cc3ccc(N(C)C)cc3cc2C1=O` (field: absorption maximum) = 380

Form: molecule = `Cc1ccc(-c2cc(-c3ccccc3)c3c(N)nc(N4CCCC4)c(C#N)c3n2)cc1` ; absorption maximum = 420
